The measurements presented in this section are drawn from ChEMBL document CHEMBL5241091.

Below, each entry is listed alongside its reported LD50.
# assay_method_text: Toxicity in sc dosed mouse
# Assay type: organism-based
# condition_info: in vivo
# unit: mg/kg | format: bare number

[
  {
    "compound": "CN(C)C(=N)NC(=N)N",
    "recorded_number": 2200
  }
]

Now for a further compound.
For the compound shown here, `N=C(N)/N=C(\N)N1CCOCC1` , give the reported LD50.
225

* * *

# assay_method_text: Toxicity in po dosed mouse
# Assay type: organism-based
# condition_info: in vivo
assay_readout: LD50 (mg/kg)
# unit: mg/kg | format: bare number

For the compound shown here, `CN(C)C(=N)NC(=N)N` , give the reported LD50.
1450
